target: T1, HER3^I-II V110A (human, UniProt P21860 20-329); assay: SPR (BIAcore), immobilized trx-hrg
T1 construct: also called H3^I-II V110A
T1 sequence (P21860 20-329 V110A): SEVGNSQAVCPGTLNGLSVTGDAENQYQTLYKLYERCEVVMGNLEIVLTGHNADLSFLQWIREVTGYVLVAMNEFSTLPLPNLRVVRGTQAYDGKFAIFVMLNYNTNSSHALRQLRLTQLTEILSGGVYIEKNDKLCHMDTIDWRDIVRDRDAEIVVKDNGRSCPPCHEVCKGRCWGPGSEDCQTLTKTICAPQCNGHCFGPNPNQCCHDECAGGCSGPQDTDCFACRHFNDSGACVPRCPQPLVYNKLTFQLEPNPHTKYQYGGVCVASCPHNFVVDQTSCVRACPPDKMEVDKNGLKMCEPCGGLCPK
reported metric: pKd
Recall that pKd is obtained by taking minus log10 of the concentration measured in molar.

Item trx-hrg, thioredoxin-heregulin fusion with a C-terminal His and S-tag (ligand, Made as in Landgraf et al. 1998; also called S-tagged hrg; immobilized hrg; not shown: thioredoxin; C-terminal His tag and S-tag) SHLVKCAEKEKTFCVNGGECFMVKDLSNPSRYLCKCPNEFTGDRCQNYVMASFYKHLGIEF has what recorded pKd?
7.81
